# Test system: β-galactosidase in CMV-LacZ C2C12 myoblasts
# runDescription: CMV-LacZ secondary screen in C2C12 myoblasts (β-Gal stabilizing assay)
# Assay type: cell-based, mouse
# conditionContext: 20 uM; CMV-LacZ C2C12 myoblasts
CMV-LACZ in Myoblasts (β-galactosidase activity relative to DMSO) values, listed per item
Keep the answer to the number alone.

CC1(C)Cc2ccccc2-c2nc3n(c(=O)c21)CCS3 [MLS000711491-01]
1.5063
CCOC(=O)C1(Cc2cccc(Cl)c2)CCCN(C(=O)CCSC)C1 (centres unmarked) [MLS001000299-01]
1.1522
COc1ccc(OC)c(NC(=O)CN2CCC(NC(=O)c3ccccc3C)CC2)c1 [MLS001212882-01]
1.3230
Cn1ccc(C(=O)Nc2cccnc2Cl)n1 [MLS001147478-01]
1.0513

In: // CMV-LACZ in Myoblasts (β-galactosidase activity relative to DMSO) lookup, key: Cc1ccc(Cn2nnc3c(=O)[nH]c(C4CCCN(C(=O)c5ccco5)C4)nc32)cc1 (centres unmarked) [MLS001217212-01]
Out: 1.1137

In: Quick one: CCOc1ccccc1Nc1cc2n(c(=O)n1)CCc1cc(OC)c(OC)cc1-2 [MLS001215294-01]
Out: 0.3302

In: Now consider O=C(N[C@@H](Cc1c[nH]c2ccccc12)C(=O)O)C1CCN(S(=O)(=O)c2cccs2)CC1 [MLS001175021-01] and answer again.
Out: 1.1070

In: Next molecule: COC(=O)Cn1c(=O)c2c(nc3n2CC(C)CN3Cc2ccccc2)n(C)c1=O (centres unmarked) [MLS001166758-01]
Out: 0.6126

###

Here, each record is paired with measured activation at 1.53 µM data.
# Test system: α7 integrin (LacZ reporter in α7LacZ+/− myoblasts)
# runDescription: qHTS of the LOPAC library and MLSMR (online screen, α7LacZ+/− myoblasts)
# conditionContext: Mus musculus, Myoblast, 48 h, read-out: Activity at 1.530 uM [%] **
Field: value (include unit after the number)

Some solved cases for reference:
COc1ccc(CNC(=O)COC(=O)CCc2c[nH]c3ccccc23)cc1
-0.551%
COc1ccc(Nc2ncnc3ccc(Br)cc23)cc1OC
40%
CN(C)C1(C/N=C/c2cc(Cl)cc([N+](=O)[O-])c2O)CCCCC1
-11.6%
CN(CC(=O)Nc1cccc(F)c1)C(=O)c1ccc(-c2ccc(Cl)cc2)o1
8.12%
NC(=O)c1cccnc1Oc1ccc(Cl)cc1Cl
-7.73%

In: Tell me the measured activation at 1.53 µM of O=Cc1cnc(N2CCCCC2)s1 , please.
Out: -20%

In: Lookup COc1cc(Cl)cc(CN2CCC(CCC(=O)NC3CC3)CC2)c1OC
Out: -33.5%

###

# Tested on: β-galactosidase in CMV-LacZ C2C12 myoblasts
# runDescription: CMV-LacZ secondary screen in C2C12 myoblasts (β-Gal stabilizing assay)
# Type: cell-based, mouse
# conditionContext: 40 uM; CMV-LacZ C2C12 myoblasts
Threshold check on CMV-LACZ in Myoblasts (β-galactosidase activity relative to DMSO): at or above 1 gives T, strictly below gives F.

Past entries and their recorded results:
Cc1ccccc1S(=O)(=O)N1C[C@H]2CON(C)[C@H]2C[C@H]1c1cccc(-c2ccccc2)c1 [MLS002694363-01]
F
O=c1[nH]c(CN2CCCCC2)nc2c1C1(CCCCC1)Cc1ccccc1-2 [MLS000028160-01]
F
C/C(=N\NC(=O)c1cc(C)oc1C)c1ccc2ccccc2c1 [MLS000912258-01]
F
N#Cc1ccc(Sc2nc3ccccc3[nH]2)cc1C#N [MLS000110418-01]
F

In: Dear colleague, could you confirm whether COc1ccc(OC)c(NC(=O)CN2CCC(NC(=O)c3ccccc3C)CC2)c1 [MLS001212882-01] has CMV-LACZ in Myoblasts (β-galactosidase activity relative to DMSO) at or above 1?
Out: T

In: Input Cc1ccc(NS(=O)(=O)c2ccc(-c3ccc(=O)[nH]n3)o2)c(C)c1 [MLS001116535-01]
Out: T

In: Continue with Cn1cc(CN(CCO)Cc2cccs2)c(-c2ccccc2F)n1 [MLS000732652-01]
Out: F

In: Also, CN(CC(=O)Nc1cccc(F)c1)C(=O)c1ccc(-c2ccc(Cl)cc2)o1 [MLS001078811-01] please.
Out: F
